The reported numbers originate from the supplement of paper PMC7156485.

- Tested on: TDF
- Run Description: H1.0 immunofluorescence intensity relative to DMSO (% of DMSO); higher = stronger H1.0 induction, active = 120 or more
- Run Parameters: concentration: 10 µM; 24 h
Assign H1.0 immunofluorescence intensity to each entry below.
Numbers only.

Below are worked cases with known answers.
CN(C)CCC(c1ccc(Cl)cc1)c1ccccn1.O=C(O)C=CC(=O)O (single isomer, unassigned; (+)) [(+)-Chlorpheniramine maleate]	99.2
COc1ccc(C2OCC3C(c4ccc(OC)c(OC)c4)OCC23)cc1OC (stereo not drawn)	97.6

GET /values?readout=H1.0 immunofluorescence intensity&item= CC1CS(=O)(=O)CCN1/N=C/c1ccc([N+](=O)[O-])o1 (stereo not drawn) 98.5

---

Can you tell me cell number for the items I'm about to list?
- Test system: TDF
- Run Description: cell number relative to DMSO (% of DMSO); higher = more cells (less growth inhibition / toxicity)
- Run Parameters: concentration: 10 µM; 24 h
Answers are plain numbers.

O=C1NC(=O)C(=Cc2ccc3nccnc3c2)S1 [PI 3-Kg Inhibitor]	110
CCOP(=O)(OCC)C(=Cc1cc(C(C)(C)C)c(O)c(C(C)(C)C)c1)P(=O)(OCC)OCC	101

From here, focus on the item given below.
Reported cell number, compound O=C1CC(c2ccc(O)c(O)c2)Oc2c1ccc(OC1OC(CO)C(O)C(O)C1O)c2O (stereo not drawn) [Flavanomarein] : ____ 98.6

---

- System: TDF
- Run Description: H1.0 immunofluorescence intensity relative to DMSO (% of DMSO); higher = stronger H1.0 induction, active = 120 or more
- Run Parameters: concentration: 10 µM; 24 h
Permitted responses: active, inactive

Example results:
COc1ccc(C=CC(=O)Nc2ccccc2C(=O)O)cc1OC	inactive
O=C([O-])c1cc(=O)c2c(OCC(O)COc3cccc4oc(C(=O)[O-])cc(=O)c34)cccc2o1.[Na+].[Na+] [Disodium Cromoglycate]	inactive
CN(C)CCC=C1c2ccccc2C=Cc2ccccc21.Cl [Cyclobenzaprine hydrochloride]	inactive

API: the following record is the query input.
Test call for this molecule, please: Cn1c(=O)c(-c2c(Cl)cccc2Cl)cc2cnc(Nc3ccc(N4CCOCC4)cc3)nc21 active

---

- Test system: TDF
- Run Description: H1.0 immunofluorescence intensity relative to DMSO (% of DMSO); higher = stronger H1.0 induction, active = 120 or more
- Run Parameters: concentration: 10 µM; 24 h
Assay Metric: H1.0 immunofluorescence intensity
One number for each entry.

Worked examples, 5 molecules total:
O=c1onc2cnc3ccccc3n12	103
COc1cc2nccc(Oc3ccc(NC(=O)Nc4cc(C)on4)c(Cl)c3)c2cc1OC [Tivozanib]	99
C#CC1(O)CCC2C3CCC4=CC(=O)CCC4C3CCC21CC (stereo not given) [Levonorgestrel]	99.8
CCCCCC=CC=CC(O)CCCCCCCC(=O)O (stereo not given)	100
CCN(CC)C(=O)c1ccc(Nc2nc(OCC3CCCCC3)c3[nH]cnc3n2)cc1 [Cdk2 Inhibitor IV, NU6140]	98.1

Provide H1.0 immunofluorescence intensity for all items below, preserving their order.
1. CC(C(=O)O)c1ccc(-c2ccccc2)c(F)c1 (stereo not given) [Flurbiprofen]
2. N=C([NH3+])N1CCc2ccccc2C1.N=C([NH3+])N1CCc2ccccc2C1.O=S(=O)([O-])[O-] [Debrisoquin sulfate]
3. CC12CCC3c4ccc(O)cc4CCC3C1CCC2O (stereo not given) [Estradiol]
4. COC(=O)C1=COC(C)C2CN3CCc4c([nH]c5ccccc45)C3CC12 (stereo not given) [Teterahydroalstonine]
5. CC(=O)N1CCN(c2ccc(OCC3COC(Cn4ccnc4)(c4ccc(Cl)cc4Cl)O3)cc2)CC1 (stereo not given) [Ketoconazole]

97.4
101
97.6
98.8
101

---

Would you mind telling me the reported cell number of each entry?
- Tested on: HCC1569
- Run Description: cell number relative to DMSO (% of DMSO); higher = more cells (less growth inhibition / toxicity)
- Run Parameters: concentration: 10 µM; 24 h
One number for each entry.

COc1cc(CNC(=O)CCCCC=CC(C)C)ccc1O [Capsaicin]	99
CN1CCN(C2=Nc3ccccc3Sc3ccc(Cl)cc32)CC1 [Clothiapine]	103
O=C(O)c1ccccc1Nc1ccccc1 [N-Phenylanthranilic acid]	102
CCCCCCC=CCCCCCCCC(=O)O [9(E)-Hexadecenoic acid]	99.8
O=c1cc(-c2ccc(O)cc2)oc2cc(OC3OC(CO)C(O)C(O)C3O)cc(O)c12 (stereo not drawn) [Apigenin-7-glucoside]	98.2
COc1ccccc1N1CCN(CC(O)COc2cccc3ccccc23)CC1.Cl.Cl (stereo not drawn) [Naftopidil.2HCl]	97.4

Each of the following entries comes with a recorded value; kindly state cell number for each.
1. Cc1ccc(-c2n[nH]c3c2C(c2cccc(O)c2)N(c2ccc(C(=O)O)cc2)C3=O)cc1 (stereo not drawn)
2. Cn1c(=O)c2c(ncn2C)n(C)c1=O [Caffeine]
3. O=C(Nc1cccc(Cl)c1)Nc1ncc(CCNc2ncnc3ccsc23)s1
4. CC(=O)O.O=C(O)c1ccc2c3c1cccc3c(=O)n1c3ccccc3nc21
5. CC1OC(OCC2OC(Oc3cc(O)c4c(c3)OC(c3ccc(O)c(O)c3)CC4=O)C(O)C(O)C2O)C(O)C(O)C1O (stereo not drawn) [Eriocitrin]
6. Cl.Oc1ccc(Nc2nc(-c3ccc(Cl)cc3)cs2)cc1 [Sphingosine Kinase Inhibitor]

1: 103; 2: 102; 3: 66.1; 4: 99.7; 5: 101; 6: 69.3

---

- Tested on: TDF
- Run Description: cell number relative to DMSO (% of DMSO); higher = more cells (less growth inhibition / toxicity)
- Run Parameters: concentration: 10 µM; 24 h
Assay Metric: cell number
One number for each entry.

// known answers, use as guide
O=C1Nc2ccc(I)cc2C1=Cc1cc(Br)c(O)c(Br)c1	103
COc1cc2nc(N3CCN(C(=O)c4ccco4)CC3)nc(N)c2cc1OC.Cl [Prazosin hydrochloride]	99.8
COc1cc2ncnc(Nc3ccc(Oc4ccccc4)cc3)c2cc1OC	94.7
c1coc(CNc2ncnc3nc[nH]c23)c1	112
Clc1ccc(COC(Cn2ccnc2)c2ccc(Cl)cc2Cl)c(Cl)c1 (stereo not given)	110
CCOC(=O)c1c2c3c(cccc3[nH]c1=O)C(=O)c1ccccc1-2	108
Fc1ccc(-c2nc3n(c2-c2ccncc2)CCS3)cc1	108
CC(COc1ccc(C=Cc2ccccc2)cc1)[N+](C)(C)C.[I-] (stereo not given)	84.6
CCCCCCCCCC(=O)NC(CN1CCOCC1)C(O)c1ccccc1 (racemic)	93.9
CCCC(CCC)C(=O)O	111

For the 5 compounds below, give their cell number values.
1. COC1CC(OC2C(C)C(=O)OC(C)C(C)C(OC(C)=O)C(C)C(=O)C3(CO3)CC(C)C(OC3OC(C)CC(N(C)C)C3OC(C)=O)C2C)OC(C)C1OC(C)=O (stereo not given)
2. O=C(Nc1ccc(S(=O)(=O)Nc2nccs2)cc1)C(c1ccccc1)c1ccccc1
3. NCCCCN=C(N)N.O=S(=O)(O)O [Agmatine sulfate]
4. O=C(O)c1ccc2ccccc2c1O.OCc1cc(C(O)CNCCCCCCOCCCCc2ccccc2)ccc1O (stereo not given) [Salmeterol xinafoate]
5. O.O.O=c1c(O)c(-c2ccc(O)c(O)c2)oc2cc(O)cc(O)c12 [Quercetin dihydrate]

108
105
98.2
100
98.7

---

- Tested on: HCC1569
- Run Description: H1.0 immunofluorescence intensity relative to DMSO (% of DMSO); higher = stronger H1.0 induction, active = 140 or more
- Run Parameters: concentration: 10 µM; 24 h
# output must be one of yes (1) for active, no (0) for inactive

Worked examples follow.
O=c1cc(-c2ccccc2)oc2cc(O)c(O)cc12 [6,7-Dihydroxyflavone]	no (0)
COC1C(OC(=O)C=CC=CC=CC=CC(=O)O)CCC2(CO2)C1C1(C)OC1CC=C(C)C (stereo unspecified)	no (0)
CCC1C(=O)OCC1Cc1cncn1C.Cl (stereo unspecified) [Pilocarpine.HCl]	no (0)
CCOC(=O)CNC(=O)[C@@H]1CCCN1C(=O)Cc1ccccc1	no (0)
CC[C@H](NC(=O)c1c(O)c(-c2ccccc2)nc2ccccc12)c1ccccc1	no (0)

Field: outcome | Entry: COc1cc2ncn(-c3cc(OCc4ccc(S(C)(=O)=O)cc4)c(C(N)=O)s3)c2cc1OC no (0)

Check the results log: what was the call for COc1ccc(-c2cc(=O)c3c(O)c(OC)c(OC)cc3o2)cc1O ? no (0)

Just curious, what result did CN1C2CCCC1CC(NC(=O)c1nn(C)c3ccccc13)C2 (stereo unspecified) get here? no (0)

Write down the call the test reported for this molecule. Item: Oc1cc2c(cc1O)CN(C(=S)NCCc1ccc(Cl)cc1)CCC2 [Capsazepine] no (0)

---

- Test system: HCC1569
- Run Description: H1.0 immunofluorescence intensity relative to DMSO (% of DMSO); higher = stronger H1.0 induction, active = 140 or more
- Run Parameters: concentration: 10 µM; 24 h
Please note: 1 applies when H1.0 immunofluorescence intensity is 100 or greater, and 0 applies otherwise.

Cc1ccc([N+](=O)[O-])cc1S(=O)(=O)N(C)N=Cc1cnc2ccc(Br)cn12.Cl.O.O	1
O=C1NCN(c2ccccc2)C12CCN(CCCC(c1ccc(F)cc1)c1ccc(F)cc1)CC2	1
CC1=CCCC(C)(O)C=CC(C(C)C)C(OC(=O)c2ccc(O)cc2)C1 (stereo not given)	0

Does the compound CC12CCC3c4ccc(O)cc4CCC3C1CCC2O (stereo not given) have recorded H1.0 immunofluorescence intensity that is 100 or more? 0
